// cross-study collection: Kd for Receptor-interacting serine/threonine-protein kinase 3 (Homo sapiens, UniProt Q9Y572)

Consider the worked cases shown below.
In [3]: df
Out[3]:
                                   compound                                    system  measurement_name  obs_value
0  C[C@H](Oc1cc(-c2nn(C)c3c(-c4cnn(C5CCOCC5)c4)cnc(N)c23)ccc1NS(=O)(=O)C(F)F)c1ccc(F)cc1  Receptor-interacting serine/threonine-protein kinase 3 (Homo sapiens, UniProt Q9Y572)                Kd   > 2.5 µM
1  C[C@H](Oc1cc(-c2nn(C)c3c(-c4cnn(C5CCN(C)C(C(F)F)C5)c4)cnc(N)c23)ccc1NS(=O)(=O)C(F)F)c1ccc(F)cc1 (stereo partly drawn)  Receptor-interacting serine/threonine-protein kinase 3 (Homo sapiens, UniProt Q9Y572)                Kd    > 10 µM
2  C[C@H](Oc1cc(-c2nn(C)c3c(-c4cnn(C5CCC(N(C)C)C5)c4)cnc(N)c23)ccc1NS(=O)(=O)C(F)F)c1ccc(F)cc1 (stereo partly drawn)  Receptor-interacting serine/threonine-protein kinase 3 (Homo sapiens, UniProt Q9Y572)                Kd    > 10 µM
3  CCS(=O)(=O)Nc1ccc(-c2n[nH]c(Nc3cnccn3)c2C(N)=O)cc1OC1CCCc2cc(F)ccc21 (stereo not drawn)  Receptor-interacting serine/threonine-protein kinase 3 (Homo sapiens, UniProt Q9Y572)                Kd    > 30 µM
4  Cn1nc(-c2ccc(NS(=O)(=O)C(F)F)c(OCc3ccc(F)cc3)c2)c2c(N)ncc(-c3ccncc3)c21  Receptor-interacting serine/threonine-protein kinase 3 (Homo sapiens, UniProt Q9Y572)                Kd    > 10 µM
5  Nc1ncc(-c2cnn(C3CCOCC3)c2)c2occ(-c3ccc(NS(=O)(=O)C(F)F)c(OCc4ccc(F)cc4)c3)c12  Receptor-interacting serine/threonine-protein kinase 3 (Homo sapiens, UniProt Q9Y572)                Kd   > 2.5 µM

Data request: Which measured Kd value corresponds to "C[C@H](Oc1cc(-c2n[nH]c(Nc3cc(C4CC4)on3)c2C(N)=O)ccc1NS(=O)(=O)C(F)F)c1ccc(F)cc1" ?
Data returned: > 30 µM

Data request: Which measured Kd value corresponds to "NC(=O)c1c(-c2ccc(NS(=O)(=O)Cc3ccc(Cl)cc3)cc2)n[nH]c1Nc1cccc(C(F)(F)F)n1" ?
Data returned: > 30 µM
